# subject.of.test: Angiotensin-converting enzyme (Rattus norvegicus) (UniProt P47820)
# Sequence (whole entry): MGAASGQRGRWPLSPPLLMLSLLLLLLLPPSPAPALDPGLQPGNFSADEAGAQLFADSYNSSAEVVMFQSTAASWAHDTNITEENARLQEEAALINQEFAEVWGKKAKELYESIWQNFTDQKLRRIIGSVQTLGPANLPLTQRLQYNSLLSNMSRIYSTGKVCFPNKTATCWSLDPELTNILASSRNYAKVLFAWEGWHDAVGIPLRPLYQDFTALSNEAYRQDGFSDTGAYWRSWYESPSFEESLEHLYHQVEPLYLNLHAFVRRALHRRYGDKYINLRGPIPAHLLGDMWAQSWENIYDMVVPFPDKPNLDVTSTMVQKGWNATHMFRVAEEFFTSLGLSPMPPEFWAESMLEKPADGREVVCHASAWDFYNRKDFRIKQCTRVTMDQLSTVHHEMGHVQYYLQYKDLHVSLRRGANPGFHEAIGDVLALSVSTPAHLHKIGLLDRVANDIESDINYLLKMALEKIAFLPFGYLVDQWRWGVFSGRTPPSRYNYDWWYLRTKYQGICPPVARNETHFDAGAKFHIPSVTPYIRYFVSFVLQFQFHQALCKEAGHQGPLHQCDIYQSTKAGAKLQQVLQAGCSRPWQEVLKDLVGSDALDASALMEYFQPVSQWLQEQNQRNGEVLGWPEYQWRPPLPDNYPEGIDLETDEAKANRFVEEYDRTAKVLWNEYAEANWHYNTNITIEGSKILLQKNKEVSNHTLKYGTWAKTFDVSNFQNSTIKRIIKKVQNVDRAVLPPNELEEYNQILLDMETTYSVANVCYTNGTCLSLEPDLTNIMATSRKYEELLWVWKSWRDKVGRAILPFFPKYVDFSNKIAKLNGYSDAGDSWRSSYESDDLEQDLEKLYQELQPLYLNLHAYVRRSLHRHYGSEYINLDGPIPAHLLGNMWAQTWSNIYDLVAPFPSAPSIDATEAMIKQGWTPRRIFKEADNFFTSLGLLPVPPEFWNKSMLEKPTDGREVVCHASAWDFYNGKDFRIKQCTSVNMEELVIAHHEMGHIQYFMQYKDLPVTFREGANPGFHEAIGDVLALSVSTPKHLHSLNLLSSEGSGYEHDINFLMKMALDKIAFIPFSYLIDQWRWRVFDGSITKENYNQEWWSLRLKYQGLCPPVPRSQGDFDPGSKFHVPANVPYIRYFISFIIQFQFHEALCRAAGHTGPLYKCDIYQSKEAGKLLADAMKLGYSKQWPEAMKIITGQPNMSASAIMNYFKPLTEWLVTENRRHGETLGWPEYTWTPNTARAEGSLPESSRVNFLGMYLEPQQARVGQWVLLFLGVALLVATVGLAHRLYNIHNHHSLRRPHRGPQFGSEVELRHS
# protocol: Change in mean arterial blood pressure (MABP) after 20 mg/kg (po) dosage in Aorta-Coated renal hypertensive rat at 0.5 h
# Format: functional, organism-based
# Parameters: dose 20 mg/kg
Label rule, in plain words: Delta MABP of -20 mmHg and up is yes, under -20 mmHg is no.

CC(=O)SC(CC(=O)N1CCCC1C(=O)O)C(=O)c1ccc(Br)cc1 (configuration not stated) : yes

Now consider a different compound.
Answer whether Delta MABP of O=C(c1ccc(Br)cc1)C(S)CC(=O)N1CCCC1C(=O)O (configuration not stated) is greater than or equal to -20 mmHg. yes

----------
# subject.of.test: Angiotensin-converting enzyme (Rattus norvegicus) (UniProt P47820)
# Sequence (whole entry): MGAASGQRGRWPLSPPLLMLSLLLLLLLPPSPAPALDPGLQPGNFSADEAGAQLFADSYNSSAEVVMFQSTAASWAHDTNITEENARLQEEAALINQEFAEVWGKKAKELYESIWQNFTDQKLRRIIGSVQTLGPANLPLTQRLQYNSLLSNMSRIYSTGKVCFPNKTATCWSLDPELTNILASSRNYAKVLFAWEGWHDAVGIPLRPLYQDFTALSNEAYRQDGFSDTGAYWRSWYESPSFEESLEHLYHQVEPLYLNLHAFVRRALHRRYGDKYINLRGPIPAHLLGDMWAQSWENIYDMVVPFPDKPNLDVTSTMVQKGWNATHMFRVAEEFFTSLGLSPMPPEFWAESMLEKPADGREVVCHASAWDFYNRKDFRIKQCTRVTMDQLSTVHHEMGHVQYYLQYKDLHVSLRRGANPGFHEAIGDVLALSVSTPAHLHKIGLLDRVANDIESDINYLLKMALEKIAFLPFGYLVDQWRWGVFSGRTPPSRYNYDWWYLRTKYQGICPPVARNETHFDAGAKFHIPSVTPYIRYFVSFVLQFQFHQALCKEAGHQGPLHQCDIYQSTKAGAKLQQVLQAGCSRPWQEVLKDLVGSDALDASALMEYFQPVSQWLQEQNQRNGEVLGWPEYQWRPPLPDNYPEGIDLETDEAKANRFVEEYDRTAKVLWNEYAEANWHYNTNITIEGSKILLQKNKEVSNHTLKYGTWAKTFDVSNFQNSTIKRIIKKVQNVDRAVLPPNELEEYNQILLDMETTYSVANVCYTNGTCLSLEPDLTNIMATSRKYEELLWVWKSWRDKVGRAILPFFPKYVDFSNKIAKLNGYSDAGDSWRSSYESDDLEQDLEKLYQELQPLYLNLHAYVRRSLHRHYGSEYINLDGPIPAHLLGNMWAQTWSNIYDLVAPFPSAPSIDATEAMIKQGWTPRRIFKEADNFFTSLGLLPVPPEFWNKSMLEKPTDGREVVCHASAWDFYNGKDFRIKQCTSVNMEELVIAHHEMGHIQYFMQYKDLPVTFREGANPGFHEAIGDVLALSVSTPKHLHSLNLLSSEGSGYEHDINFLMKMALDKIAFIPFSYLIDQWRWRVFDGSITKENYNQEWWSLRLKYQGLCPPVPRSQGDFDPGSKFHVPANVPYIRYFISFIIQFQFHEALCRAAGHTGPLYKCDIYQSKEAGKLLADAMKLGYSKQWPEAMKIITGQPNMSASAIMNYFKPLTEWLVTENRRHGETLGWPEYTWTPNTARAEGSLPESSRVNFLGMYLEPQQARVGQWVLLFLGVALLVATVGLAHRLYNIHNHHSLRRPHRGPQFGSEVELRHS
# protocol: Change in mean arterial blood pressure (MABP) after 20 mg/kg (po) dosage in Aorta-Coated renal hypertensive rat at 2.0 h
# Type: functional, organism-based
# Set-up: dose 20 mg/kg
hey, just use condition met if measured Delta MABP is less than -10 mmHg, otherwise condition not met

These recorded examples may help you get a feel for the data.
O=C(SC(CC(=O)N1CCCC1C(=O)O)C(=O)c1ccc(Br)cc1)c1ccccc1 (configuration not stated) : condition met
CC(=O)SC(CC(=O)N1CCCC1C(=O)O)C(=O)c1cccc(F)c1 (configuration not stated) : condition not met
CC(=O)SC(CC(=O)N1CCCC1C(=O)O)C(=O)c1cccc(C(F)(F)F)c1 (configuration not stated) : condition not met

I wonder whether CC(=O)S[C@H](C(=O)c1cccc(F)c1)[C@@H](C)C(=O)N1CCC[C@H]1C(=O)O has Delta MABP below -10 mmHg. Can you tell? condition met

I wonder whether O=C(c1ccc(Br)cc1)C(S)CC(=O)N1CCCC1C(=O)O (configuration not stated) has Delta MABP below -10 mmHg. Can you tell? condition met

I wonder whether CC(=O)SC(CC(=O)N1CCCC1C(=O)O)C(=O)c1ccc(F)cc1 (configuration not stated) has Delta MABP below -10 mmHg. Can you tell? condition met

I wonder whether O=C(SC(CC(=O)N1CCCC1C(=O)O)C(=O)c1ccccc1)c1ccccc1 (configuration not stated) has Delta MABP below -10 mmHg. Can you tell? condition met

I wonder whether CC(=O)S[C@@H](C(=O)c1ccccc1)[C@@H](C)C(=O)N1CCC[C@H]1C(=O)O has Delta MABP below -10 mmHg. Can you tell? condition met

I wonder whether CC(=O)SC(C(=O)c1ccc(Cl)cc1)C(C)C(=O)N1CCCC1C(=O)O (configuration not stated) has Delta MABP below -10 mmHg. Can you tell? condition met

I wonder whether CC(=O)SC(CC(=O)N1CCCC1C(=O)O)C(=O)c1ccc2c(c1)CCC2 (configuration not stated) has Delta MABP below -10 mmHg. Can you tell? condition met

I wonder whether CC(=O)SC(CC(=O)N1CCCC1C(=O)O)C(=O)c1ccccc1 (configuration not stated) has Delta MABP below -10 mmHg. Can you tell? condition not met

I wonder whether CC(=O)SC(CC(=O)N1CCCC1C(=O)O)C(=O)c1ccc(Cl)cc1 (configuration not stated) has Delta MABP below -10 mmHg. Can you tell? condition met

I wonder whether CC(=O)SC(CC(=O)N1CCCC1C(=O)O)C(=O)c1ccc(C(C)(C)C)cc1 (configuration not stated) has Delta MABP below -10 mmHg. Can you tell? condition met

I wonder whether CC(=O)S[C@@H](C(=O)c1ccc(Br)cc1)[C@@H](C)C(=O)N1CCC[C@H]1C(=O)O has Delta MABP below -10 mmHg. Can you tell? condition met

I wonder whether O=C(SC(CC(=O)N1CCCC1C(=O)O)C(=O)c1cccc(F)c1)c1ccccc1 (configuration not stated) has Delta MABP below -10 mmHg. Can you tell? condition not met

I wonder whether CC(=O)S[C@H](C(=O)c1ccc(Br)cc1)[C@@H](C)C(=O)N1CCC[C@H]1C(=O)O has Delta MABP below -10 mmHg. Can you tell? condition met

I wonder whether CC(=O)SC(CC(=O)N1CCCC1C(=O)O)C(=O)c1ccc2ccccc2c1 (configuration not stated) has Delta MABP below -10 mmHg. Can you tell? condition not met

I wonder whether O=C(SC(CC(=O)N1CCCC1C(=O)O)C(=O)c1ccc(F)cc1)c1ccccc1 (configuration not stated) has Delta MABP below -10 mmHg. Can you tell? condition not met

I wonder whether CC(=O)SC(CC(=O)N1CCCC1C(=O)O)C(=O)c1ccc(Br)cc1 (configuration not stated) has Delta MABP below -10 mmHg. Can you tell? condition met
